List of Ki values.
Target: UniProt:Q72547
Experiment: Inhibition of HIV1 reverse transcriptase p66/p51 using template-primer [oligo(dT)12-18 + poly(rA)] by mixed type competitive inhibition assay
observable: Ki

>>> measured_value("CC1(C)CC[C@]2(C(=O)O)CC=C3[C@]4(C)CC[C@H]5C(C)(C)[C@@H](OC(=O)c6ccc(O)cc6)C[C@@H](O)[C@]5(C)[C@H]4CC[C@@]3(C)[C@H]2C1")
"6.7 µM"
>>> measured_value("C=C1C(=O)O[C@@H](CCCCCCCCCCCCC)[C@@H]1C(=O)O")
"10 µM"

---

pIC50: −log10 of the molar value.
For reference, pIC50 measured on Human immunodeficiency virus type 1 reverse transcriptase (Human immunodeficiency virus 1):
observable: pIC50

>>> measured_value("C=C1C(=O)O[C@@H](CCCCCCCCCCCCC)[C@@H]1C(=O)O")
4.61
>>> measured_value("CCCc1cc(=O)oc2c3c(c4c(c12)OC(C)(C)C=C4)O[C@H](C)[C@@H](C)[C@@H]3O [CALANOLIDE A]")
6.00
>>> measured_value("CC1=C(C#C/C(C)=C/C=C/C(C)=C/C=C/C=C(C)/C=C/C=C(\\C)C(=O)C[C@@]23O[C@]2(C)C[C@@H](O)CC3(C)C)C(C)(C)C[C@H](O)C1")
5.14
>>> measured_value("COc1cc(O)c2c(=O)c3c(O)c(-c4c(O)c([C@@H]5O[C@H](CO)[C@@H](O)[C@H](O)[C@H]5O)c(O)c5c(=O)cc(-c6ccc(O)c(O)c6)oc45)cc(O)c3oc2c1")
4.37
